- measurement_target: Beta-3 Adrenergic Receptor (Homo sapiens (Human), UniProt P13945)
- Sequence (P13945 whole entry, species assumed): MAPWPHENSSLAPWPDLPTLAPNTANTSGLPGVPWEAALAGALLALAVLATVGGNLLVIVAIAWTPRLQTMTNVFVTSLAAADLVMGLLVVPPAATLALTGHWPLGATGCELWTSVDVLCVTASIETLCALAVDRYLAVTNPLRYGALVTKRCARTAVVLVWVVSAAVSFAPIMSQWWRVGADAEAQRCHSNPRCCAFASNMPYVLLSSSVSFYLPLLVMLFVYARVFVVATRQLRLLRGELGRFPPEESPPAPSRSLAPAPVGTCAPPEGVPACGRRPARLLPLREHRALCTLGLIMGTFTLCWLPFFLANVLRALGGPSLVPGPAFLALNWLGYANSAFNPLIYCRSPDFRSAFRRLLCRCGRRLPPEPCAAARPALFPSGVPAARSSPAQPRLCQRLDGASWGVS
- protocol_text: Homogeneous Time-Resolved Fluorescence (HTRF) cAMP antagonist assay, IC50 determination
- measurement_conditions: CHO-K1 cells stably expressing recombinant receptor, isoproterenol at EC90
Documented log10 of IC50 across a set of compounds
Scale: log10; quantity: IC50; unit before log: µM

CNS(=O)(=O)c1cccc(OC[C@@H](O)CNC2COC3(CCN(S(=O)(=O)c4cc(-c5ccc(CN)cc5)ccc4OC)CC3)C2)c1 (stereo partly drawn): -1.80
O=S(=O)(NCC(F)(F)F)c1cccc(OC[C@@H](O)CNC2COC3(CCN(S(=O)(=O)c4ccc5ccccc5c4)CC3)C2)c1 (stereo partly drawn): -0.66
Cc1n[nH]c2ncc(S(=O)(=O)N3CCC4(CC3)C[C@@H](NC[C@H](O)COc3cccc(S(N)(=O)=O)c3)CO4)cc12: -1.57
CNS(=O)(=O)c1cccc(OC[C@@H](O)CN[C@H]2COC3(CCN(S(=O)(=O)c4cnc5[nH]cc(Cl)c5c4)CC3)C2)c1: -2.31
CNS(=O)(=O)c1cccc(OC[C@@H](O)CNC2COC3(CCN(S(=O)(=O)c4ccc(-c5ccncc5)cc4)CC3)C2)c1 (stereo partly drawn): -1.41

Let's switch to this compound now.
Query: log10 of IC50 for CNS(=O)(=O)c1cccc(OC[C@@H](O)CNC2COC3(CCN(S(=O)(=O)c4ccc(Oc5ccccc5)nc4)CC3)C2)c1 (stereo partly drawn) ?
Result: -2.08

###

- measurement_target: Beta-3 Adrenergic Receptor (Homo sapiens (Human), UniProt P13945)
- protocol_text: Homogeneous Time-Resolved Fluorescence (HTRF) cAMP antagonist assay, IC50 determination
- measurement_conditions: CHO-K1 cells stably expressing recombinant receptor, isoproterenol at EC90
readout: pIC50
Bear in mind: pIC50 is minus log10 of a mol/L concentration; give just that figure.

CNS(=O)(=O)c1cccc(OC[C@@H](O)CNC2COC3(CCN(S(=O)(=O)c4cc(C)ccc4C#N)CC3)C2)c1 (stereo partly shown): 7.53
CNS(=O)(=O)c1cccc(OC[C@@H](O)CNC2COC3(CCN(S(=O)(=O)c4cccc(-c5cn(C)nc5C)c4)CC3)C2)c1 (stereo partly shown): 7.43
CNS(=O)(=O)c1cccc(OC[C@@H](O)CNC2COC3(CCN(S(=O)(=O)c4cnc(O)nc4)CC3)C2)c1 (stereo partly shown): 6.67

Query: # input molecule: CNS(=O)(=O)c1cccc(OC[C@@H](O)CNC2COC3(CCN(S(=O)(=O)c4c(C)nn(C)c4Cl)CC3)C2)c1 (stereo partly shown) ; wanted: its pIC50
Result: 7.19

Query: Now try CNS(=O)(=O)c1cccc(OC[C@@H](O)CNC2COC3(CCN(S(=O)(=O)c4ccccc4)CC3)C2)c1 (stereo partly shown) .
Result: 7.52

Query: Thanks! And NS(=O)(=O)c1cccc(OC[C@@H](O)CN[C@H]2COC3(CCN(S(=O)(=O)c4cnc5ccccc5c4O)CC3)C2)c1 ?
Result: 7.84

Query: Next molecule up: CNS(=O)(=O)c1cccc(OC[C@@H](O)CNC2COC3(CCN(S(=O)(=O)c4cc(C)cc(C)c4)CC3)C2)c1 (stereo partly shown)
Result: 7.86

###

- measurement_target: Beta-3 Adrenergic Receptor (Homo sapiens (Human), UniProt P13945)
- protocol_text: Homogeneous Time-Resolved Fluorescence (HTRF) cAMP antagonist assay, IC50 determination
- measurement_conditions: CHO-K1 cells stably expressing recombinant receptor, isoproterenol at EC90
Listed here are molecules together with their documented log10 IC50.
Could you please treat all values as log10 of IC50 in µM?

CNS(=O)(=O)c1cccc(OC[C@@H](O)CNC2COC3(CCN(S(=O)(=O)c4cccc(Cl)c4F)CC3)C2)c1 (stereo partly shown): -1.99
CNS(=O)(=O)c1cccc(OC[C@@H](O)CN[C@@H]2COC3(CCN(S(=O)(=O)c4cccc(-c5ccc(CN)cc5)c4)CC3)C2)c1: -1.87
C[C@@H](CO)NS(=O)(=O)c1cccc(OC[C@@H](O)CNC2COC3(CCN(S(=O)(=O)c4ccc5ccccc5c4)CC3)C2)c1 (stereo partly shown): -0.88
CNS(=O)(=O)c1cccc(OC[C@@H](O)CN[C@H]2COC3(CCN(S(=O)(=O)c4cnc5ccccc5c4)CC3)C2)c1: -1.82

Query: So what's the measured log10 IC50 for this one? CN(C)S(=O)(=O)c1cccc(OC[C@@H](O)CNC2COC3(CCN(S(=O)(=O)c4cccc(-c5ccc(CN)cc5)c4)CC3)C2)c1 (stereo partly shown)
Result: -1.81

Query: Another molecule to look at: CNS(=O)(=O)c1cccc(OC[C@@H](O)CN[C@@H]2COC3(CCN(S(=O)(=O)c4cccc(-c5ccc(CNCCC(C)C)cc5)c4)CC3)C2)c1
Result: -1.66

Query: // same read-out, input: CNS(=O)(=O)c1cccc(OC[C@@H](O)CN[C@@H]2COC3(CCN(S(=O)(=O)c4cccc(-c5ccc(C6(N)CC6)cc5)c4)CC3)C2)c1
Result: -1.92

Query: Can you handle COCCNS(=O)(=O)c1cccc(OC[C@@H](O)CNC2COC3(CCN(S(=O)(=O)c4ccc5ccccc5c4)CC3)C2)c1 (stereo partly shown) next?
Result: -1.54

Query: And for CCNS(=O)(=O)c1cccc(OC[C@@H](O)CNC2COC3(CCN(S(=O)(=O)c4cccc(-c5cnn(CC)c5)c4)CC3)C2)c1 (stereo partly shown) ?
Result: -1.39

Query: For CNS(=O)(=O)c1cccc(OC[C@@H](O)CNC2COC3(CCN(S(=O)(=O)c4cc(-c5ccc(CN)cc5)cc5c4OCC5)CC3)C2)c1 (stereo partly shown) then?
Result: -1.79

Query: Cool, now CCOc1ccc(-c2ccc(CN)cc2)cc1S(=O)(=O)N1CCC2(CC1)CC(NC[C@H](O)COc1cccc(S(=O)(=O)NC)c1)CO2 (stereo partly shown)
Result: -1.89

Query: Same thing, different molecule: O=S(=O)(NCCO)c1cccc(OC[C@@H](O)CN[C@H]2COC3(CCN(S(=O)(=O)c4cnc5cc[nH]c5c4)CC3)C2)c1
Result: -1.01

Query: Also check CNS(=O)(=O)c1cccc(OC[C@@H](O)CNC2COC3(CCN(S(=O)(=O)c4cccc(-c5cccc(S(=O)(=O)N(C)C)c5)c4)CC3)C2)c1 (stereo partly shown)
Result: -1.47

Query: Same read-out for CCOc1nc2c(cc1S(=O)(=O)N1CCC3(CC1)CC(NC[C@H](O)COc1cccc(S(=O)(=O)NC)c1)CO3)N(C)CCO2 (stereo partly shown) ?
Result: -1.60

Query: Repeat for the following molecule: CNS(=O)(=O)c1cccc(OC[C@@H](O)CN[C@H]2COC3(CCN(S(=O)(=O)c4cnc5c(c4)C(=O)NC5)CC3)C2)c1
Result: -0.69

Query: Likewise for CNS(=O)(=O)c1cccc(OC[C@@H](O)CNC2COC3(CCN(S(=O)(=O)c4cccc(-c5cccc(S(C)(=O)=O)c5)c4)CC3)C2)c1 (stereo partly shown) ?
Result: -1.51

Query: Queued: CNS(=O)(=O)c1cccc(OC[C@@H](O)CN[C@@H]2COC3(CCN(S(=O)(=O)c4cnc5c(c4)N(C)CCO5)CC3)C2)c1
Result: -1.85

Query: Thanks! And CNc1nc2c(cc1S(=O)(=O)N1CCC3(CC1)C[C@@H](NC[C@H](O)COc1cccc(S(=O)(=O)NC)c1)CO3)N(C)CCO2 ?
Result: -1.59

Query: Repeat with CNS(=O)(=O)c1cccc(OC[C@@H](O)CNC2COC3(CCN(S(=O)(=O)c4cncc(-c5ccc(CN)cc5)c4)CC3)C2)c1 (stereo partly shown)
Result: -1.55
